Assay: small-molecule microarray binders of probe aNog, primary screen, biochemical, biotinylated probe, 635/667 nm fluorescence (AID 1115);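 note: probe is biotinylated aNog protein used at 0.15 µg/mL for 1 h at 4 C; z-score combines 667 nm fluorescence of each spot with its signal to noise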
Conditions: higher = more signal
MEASURED_METRIC: composite z-score
Reply: number alone, nothing else.

Some solved entries appear below for comparison.
[
  {
    "CHEMICAL_STRING": "CC(C)N1C(=O)c2ccccc2[C@@H](C(=O)NC2CC2)[C@@H]1c1ccc(CO)cc1",
    "composite z-score": -0.288
  },
  {
    "CHEMICAL_STRING": "O=C1O[C@H](c2ccccc2)[C@H](c2ccccc2)N2[C@H]1[C@@H](C(=O)N1CCN(c3ncccn3)CC1)[C@]1(C(=O)Nc3ccc(C#CC4(O)CCCCCC4)cc31)[C@H]2c1ccc(OCCO)cc1",
    "composite z-score": 2.34
  }
]

Next compound, please.
Problem: Find the recorded composite z-score belonging to CC(C)(C)OC(=O)CC[C@@]1(C(=O)NCc2ccccc2)N=C(c2ccc(OCCCO)cc2)O[C@@H]1c1ccccc1N=[N+]=[N-] and report it.
Solution: 1.9
